The values you see were collected from ChEMBL document CHEMBL5120815.

# Test system: SK-BR-3
# PROTOCOL DESCRIPTION: Cytotoxicity against human SK-BR-3 cells harbouring wild type BRCA1/2 assessed as inhibition of cell growth incubated for 48 hrs by MTT assay
# Format: functional, cell-based
# COND: SK-BR-3, 48 h
pIC50: −log10 of the molar value.
This listing pairs molecules with measured pIC50.
READOUT LABEL: pIC50

In [3]: df
Out[3]:
                              smiles_record  readout_label  op  reported_measurement
0  CCCN(CCC)c1ncc2c(n1)CCN(C(=O)c1cc(Cc3n[nH]c(=O)c4ccccc34)ccc1F)C2          pIC50   <                  3.70
1  O=C(c1cc(Cc2n[nH]c(=O)c3ccccc23)ccc1F)N1CCc2nc(N3CCOCC3)ncc2C1          pIC50   =                  4.30
2  CN1CCN(c2ncc3c(n2)CCN(C(=O)c2cc(Cc4n[nH]c(=O)c5ccccc45)ccc2F)C3)CC1          pIC50   =                  4.02
3  CN(C)CCN(C)c1ncc2c(n1)CCN(C(=O)c1cc(Cc3n[nH]c(=O)c4ccccc34)ccc1F)C2          pIC50   <                  3.70
4  CCN(CC)c1ncc2c(n1)CCN(C(=O)c1cc(Cc3n[nH]c(=O)c4ccccc34)ccc1F)C2          pIC50   <                  3.70
5  O=C(c1cc(Cc2n[nH]c(=O)c3ccccc23)ccc1F)N1CCc2nc(N3CCCC3)ncc2C1          pIC50   <                  3.70
6  O=C(c1cc(Cc2n[nH]c(=O)c3ccccc23)ccc1F)N1CCc2nc(N3CCCCC3)ncc2C1          pIC50   =                  4.61
7  CCCCN(CCCC)c1ncc2c(n1)CCN(C(=O)c1cc(Cc3n[nH]c(=O)c4ccccc34)ccc1F)C2          pIC50   =                  4.67
8  CCN1CCN(c2ncc3c(n2)CCN(C(=O)c2cc(Cc4n[nH]c(=O)c5ccccc45)ccc2F)C3)CC1          pIC50   <                  3.70
